target: CDK2-CYCLIN E1 (Homo sapiens, UniProt P24941); assay: CDK protein kinase inhibition by ADP-Glo assay, CDK2-CYCLIN E1; format: biochemical; conditions: ADP-Glo, 1000 μM ATP; Table 9; read-out: CDK2-CYCLINE, IC50
parameter: IC50

O=C1NC23CC(CCc4cc(ccn4)Nc4cc([nH]n4)[C@H]4CC[C@H](C4)O1)(C2)C3 [compound 21]: 0.01 to 0.05 µM

Now look at this one.
# lookup: IC50 of C[C@@H]1CCC2(CC2)NC(=O)O[C@@H]2CC[C@@H](C2)c2cc([nH]n2)Nc2ccnc(c2)O1 [compound 109]
≤ 0.01 µM

---

biological target: CDK4-CYCLIN D1 (Homo sapiens, UniProt P11802); assay: CDK protein kinase inhibition by ADP-Glo assay, CDK4-CYCLIN D1; assay type: biochemical; conditions: CDK2 versus CDK4; Table 22
Sequence (P11802 whole entry): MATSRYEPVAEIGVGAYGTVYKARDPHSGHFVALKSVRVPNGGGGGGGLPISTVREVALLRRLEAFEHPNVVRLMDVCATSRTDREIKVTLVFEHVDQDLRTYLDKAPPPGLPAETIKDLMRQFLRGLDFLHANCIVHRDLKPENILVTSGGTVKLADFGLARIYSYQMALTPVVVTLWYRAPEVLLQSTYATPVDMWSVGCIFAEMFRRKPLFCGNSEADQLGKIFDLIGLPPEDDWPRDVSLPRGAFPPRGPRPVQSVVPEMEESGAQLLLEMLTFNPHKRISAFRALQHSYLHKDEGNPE
Sequence (P24385 whole entry partner): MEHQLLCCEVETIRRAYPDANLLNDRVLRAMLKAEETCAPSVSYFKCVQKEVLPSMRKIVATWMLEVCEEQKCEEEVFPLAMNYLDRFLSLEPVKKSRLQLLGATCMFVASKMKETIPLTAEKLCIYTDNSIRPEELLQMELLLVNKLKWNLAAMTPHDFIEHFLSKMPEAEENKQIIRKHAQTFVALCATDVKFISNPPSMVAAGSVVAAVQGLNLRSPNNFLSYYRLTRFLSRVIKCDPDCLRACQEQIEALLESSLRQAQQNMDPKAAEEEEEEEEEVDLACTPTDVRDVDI
parameter: CDK2 Fold selectivity, CDK4

Some compounds with recorded CDK2 Fold selectivity, CDK4:
C[C@H]1Oc2cc(ccn2)Nc2cc(n[nH]2)[C@H]2CC[C@H](C2)OC(=O)N[C@H]2C[C@H]1C2: D (D, >20 and ≤50)
C[C@H]1Oc2cncc(c2)Nc2cc(n[nH]2)[C@H]2CC[C@H](C2)OC(=O)N[C@H]2C[C@H]1C2: E (E, <20)
O=C1NCCCO[C@@H](C(F)(F)F)c2cc(ccn2)Nc2cc(n[nH]2)[C@H]2CC[C@H](C2)O1: E (E, <20)
C[C@H]1CC[C@H](C)Oc2cncc(c2)Nc2cc(n[nH]2)[C@H]2CC[C@H](C2)OC(=O)N1: D (D, >20 and ≤50)
C[C@H]1CCCNC(=O)O[C@@H]2CC[C@@H](C2)c2cc([nH]n2)Nc2cccc(c2)O1: D (D, >20 and ≤50)

I'd like to know its CDK2 Fold selectivity, CDK4. The compound in question is C[C@@H]1Oc2cncc(c2)Nc2cc(n[nH]2)[C@H]2CC[C@H](C2)OC(=O)N[C@H]2C[C@H]1C2
D (D, >20 and ≤50)

Please report the recorded CDK2 Fold selectivity, CDK4 for C[C@@H]1CC[C@H](C)Oc2cncc(c2)Nc2cc(n[nH]2)[C@H]2CC[C@H](C2)OC(=O)N1 .
D (D, >20 and ≤50)

---

Listing: IC50 of selected compounds
target: CDK4-CYCLIN D1 (Homo sapiens, UniProt P11802); assay: CDK protein kinase inhibition by ADP-Glo assay, CDK4-CYCLIN D1; format: biochemical; settings: ADP-Glo, 1000 μM ATP; Table 23; read-out: CDK4-CYCLIND1, IC50

C[C@@H]1OCC[C@H](C)NC(=O)O[C@@H]2CC[C@@H](C2)c2cc([nH]n2)Nc2ccnc1c2 [compound 159]: 10 to 50 nM
C[C@@H]1CC[C@H](C)Oc2cc(ccn2)Nc2cc(n[nH]2)[C@H]2CC[C@H](C2)OC(=O)N1 [compound 163]: 100 to 500 nM
C[C@H]1CCO[C@H](C)c2cc(ccn2)Nc2cc(n[nH]2)[C@H]2CC[C@H](C2)OC(=O)N1 [compound 158]: 100 to 500 nM

Next, consider the following compound.
Return IC50 measured with CDK4-CYCLIN D1 (Homo sapiens, UniProt P11802) given this compound: C[C@@H]1Oc2cncc(c2)Nc2cc(n[nH]2)[C@H]2CC[C@H](C2)OC(=O)N[C@H]2C[C@@H]1C2 [Compound 149]
100 to 500 nM

---

biological target: CDK9-CYCLIN T1 (Homo sapiens, UniProt P50750); assay: CDK protein kinase inhibition by ADP-Glo assay, CDK9-CYCLIN T1; type: biochemical; conditions: Table 35; recombinant CDK kinase; read-out: CDK9-CYCLINT1, IC50
Sequence (P50750 whole entry): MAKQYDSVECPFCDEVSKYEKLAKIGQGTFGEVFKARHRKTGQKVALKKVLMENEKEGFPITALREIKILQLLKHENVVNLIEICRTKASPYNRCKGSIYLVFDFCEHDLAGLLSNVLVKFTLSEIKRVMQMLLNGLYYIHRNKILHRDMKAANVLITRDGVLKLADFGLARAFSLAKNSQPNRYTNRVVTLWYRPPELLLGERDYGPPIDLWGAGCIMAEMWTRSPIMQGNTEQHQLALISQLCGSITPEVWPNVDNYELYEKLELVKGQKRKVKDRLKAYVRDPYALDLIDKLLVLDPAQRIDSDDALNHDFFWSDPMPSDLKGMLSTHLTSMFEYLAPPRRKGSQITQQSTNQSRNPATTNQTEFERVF
Sequence (O60563 whole entry partner): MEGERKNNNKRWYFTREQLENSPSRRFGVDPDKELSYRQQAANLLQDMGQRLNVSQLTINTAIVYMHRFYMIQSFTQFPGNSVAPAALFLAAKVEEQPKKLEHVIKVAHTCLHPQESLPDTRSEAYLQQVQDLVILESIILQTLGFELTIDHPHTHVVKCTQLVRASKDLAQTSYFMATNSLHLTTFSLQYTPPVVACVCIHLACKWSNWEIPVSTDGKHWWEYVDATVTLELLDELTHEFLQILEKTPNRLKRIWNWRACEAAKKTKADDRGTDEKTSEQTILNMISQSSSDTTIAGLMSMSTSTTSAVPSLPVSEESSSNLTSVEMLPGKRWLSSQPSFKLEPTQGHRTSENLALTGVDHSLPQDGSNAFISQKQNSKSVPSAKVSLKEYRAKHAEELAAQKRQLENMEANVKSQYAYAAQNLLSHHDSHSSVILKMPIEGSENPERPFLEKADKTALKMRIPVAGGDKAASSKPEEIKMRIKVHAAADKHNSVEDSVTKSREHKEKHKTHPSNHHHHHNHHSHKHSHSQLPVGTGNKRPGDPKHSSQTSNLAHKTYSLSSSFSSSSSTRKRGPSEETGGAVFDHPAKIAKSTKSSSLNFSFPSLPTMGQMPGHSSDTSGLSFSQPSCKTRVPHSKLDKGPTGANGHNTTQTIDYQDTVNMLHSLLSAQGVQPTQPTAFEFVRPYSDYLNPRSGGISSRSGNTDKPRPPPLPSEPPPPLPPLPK
pIC50: −log10 of the molar value.
The following molecules are listed with their measured pIC50 values.

Solved cases (2 shown):
[2H]C1([2H])Oc2cc(ccn2)Nc2[nH]nc(c2F)[C@H]2CC[C@H](C2)OC(=O)N[C@H]2C[C@H]1C2 [Compound 221]: < 6.30
C[C@H]1CC(F)(F)COc2cc(ccn2)Nc2cc(n[nH]2)[C@H]2CC[C@H](C2)OC(=O)N1 [Compound 223]: 6.30 to 7.00

Checklist item: pIC50 tested on CDK9-CYCLIN T1 (Homo sapiens, UniProt P50750), entry [2H]C1([2H])Oc2cc(ccn2)Nc2cc(n[nH]2)[C@H]2CC[C@H](C2)OC(=O)N[C@H]2C[C@H]1C2 [Compound 177] , value?
7.00 to 7.30

Which measured pIC50 belongs to O=C1N[C@H]2C[C@H](COc3cc(ccn3)Nc3cc(n[nH]3)[C@H]3CC[C@H](C3)O1)C2 [Compound 108] , tested on CDK9-CYCLIN T1 (Homo sapiens, UniProt P50750)?
7.00 to 7.30

Give pIC50 (CDK9-CYCLIN T1 (Homo sapiens, UniProt P50750)) of the following molecule: C[C@H]1CCCOc2cc(ccn2)Nc2cc(n[nH]2)[C@@H]2C[C@H](F)[C@@H](C2)OC(=O)N1 [Compound 225]
7.30 to 8.00

API: value(readout= pIC50, system= CDK9-CYCLIN T1 (Homo sapiens, UniProt P50750), query= C[C@H]1CCCOc2cc(ccn2)Nc2cc(n[nH]2)[C@H]2C[C@@H](F)[C@H](C2)OC(=O)N1 [Compound 224] )
< 6.30

---

target: CDK6-CYCLIN D3 (Homo sapiens); experiment: CDK protein kinase inhibition by ADP-Glo assay, CDK6-CYCLIN D3; format: biochemical; settings: ADP-Glo, 1000 μM ATP; Table 13; read-out: CDK6-CYCLIND3, IC50
pIC50: −log10 of the molar value.
parameter: pIC50

C[C@@H]1CCCNC(=O)O[C@@H]2CC[C@@H](C2)c2cc([nH]n2)Nc2cncc(c2)O1 [Compound 121]: 6.30 to 7.00

Query: pIC50; subject: O=C1NC23CC(CCCc4cc(ccn4)Nc4cc(n[nH]4)[C@H]4CC[C@H](C4)O1)(C2)C3 [Compound 96]
7.30 to 8.00

Suppose we examine the compound C[C@@H]1CCCOc2cncc(c2)Nc2cc(n[nH]2)[C@H]2CC[C@H](C2)OC(=O)N1 [Compound 120] ; what pIC50 value has been reported?
7.30 to 8.00

Quick check: pIC50 of C[C@H]1CCCOc2cncc(c2)Nc2cc(n[nH]2)[C@H]2CC[C@H](C2)OC(=O)N1 [Compound 119] ?
7.30 to 8.00

---

The entries below come with measured IC50 values attached.
target: CDK9-CYCLIN T1 (Homo sapiens, UniProt P50750); assay: CDK protein kinase inhibition by ADP-Glo assay, CDK9-CYCLIN T1; type: biochemical; conditions: ADP-Glo, 1000 μM ATP; Table 29; read-out: CDK9-CYCLINT1, IC50

C[C@H]1CCCOc2cc(ccn2)Nc2cc([nH]n2)[C@H]2CC[C@H](C2)OC(=O)N1: > 500 nM

Let's switch to this compound now.
Please report the recorded IC50 for C[C@@H]1NC(=O)O[C@@H]2CC[C@@H](C2)c2cc([nH]n2)Nc2ccnc(c2)OCCC1(F)F .
100 to 500 nM

---

system: Phospho-Rb (Ser807/811) in OVCAR3 cells; test: Phospho-Rb expression inhibition in OVCAR3 cells quantified by In Cell Western; format: cell-based; conditions: Homo sapiens, OVCAR-3, 24 hours, read-out: OVCAR-3 pRb IC50
pIC50: −log10 of the molar value.
parameter: pIC50

The cases that follow already have their pIC50 on record.
[2H]C1([2H])Oc2cc(ccn2)Nc2cc(n[nH]2)[C@H]2CC[C@H](C2)OC(=O)N[C@H]2C[C@H]1C2: 8.00 to 8.70
C[C@H]1CC/C=C/c2cc(ccn2)Nc2cc(n[nH]2)[C@H]2CC[C@H](C2)OC(=O)N1: 8.00 to 8.70

Which pIC50 value is on record for C[C@H]1NC(=O)O[C@@H]2CC[C@@H](C2)c2cc([nH]n2)Nc2ccnc(c2)COCC1(F)F ?
8.00 to 8.70

I am curious: what pIC50 value has been reported for O=C1NCCCCOc2cc(cc(C(F)F)n2)Nc2cc([nH]n2)[C@H]2CC[C@H](C2)O1 ?
7.30 to 8.00

---

Biological target: CDK6-CYCLIN D3 (Homo sapiens, UniProt Q00534)
Sequence (Q00534 whole entry): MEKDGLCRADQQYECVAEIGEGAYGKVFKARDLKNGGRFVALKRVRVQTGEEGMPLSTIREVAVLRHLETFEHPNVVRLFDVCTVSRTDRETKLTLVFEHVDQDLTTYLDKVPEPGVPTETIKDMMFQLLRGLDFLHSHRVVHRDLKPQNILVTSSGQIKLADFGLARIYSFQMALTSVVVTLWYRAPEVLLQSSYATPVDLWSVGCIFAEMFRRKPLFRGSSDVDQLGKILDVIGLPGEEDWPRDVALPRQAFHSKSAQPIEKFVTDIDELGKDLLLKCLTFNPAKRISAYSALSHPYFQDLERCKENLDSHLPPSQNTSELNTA
Sequence (P30281 whole entry partner): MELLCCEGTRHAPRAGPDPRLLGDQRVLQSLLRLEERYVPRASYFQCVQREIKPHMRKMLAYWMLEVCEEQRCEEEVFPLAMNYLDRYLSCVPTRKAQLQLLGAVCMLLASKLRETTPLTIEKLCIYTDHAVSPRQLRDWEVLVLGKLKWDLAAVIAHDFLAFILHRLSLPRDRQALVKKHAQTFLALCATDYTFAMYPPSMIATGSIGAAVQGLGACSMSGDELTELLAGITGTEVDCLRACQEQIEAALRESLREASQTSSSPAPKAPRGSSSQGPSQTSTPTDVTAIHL
Assay: CDK protein kinase inhibition by ADP-Glo assay, CDK6-CYCLIN D3
Format: biochemical
Conditions: CDK2 versus CDK6; Table 22
Procedure: CDK Protein Kinase Inhibition by ADP-Glo Assay This ADP-Glo assay measures ADP formed from a kinase reaction and indirectly quantifies the phosphorylation of peptide substrates by the CDK/cyclin protein complexes. […] At the end of the incubation, the reaction is quenched, and conversion is detected by luminescence using the Promega ADP-Glo™ Kinase Assay kit (catalog #V9102). […]
parameter: CDK2 Fold selectivity, CDK6

C[C@H]1CC[C@H](C)Oc2cncc(c2)Nc2cc(n[nH]2)[C@H]2CC[C@H](C2)OC(=O)N1: D (D, >20 and ≤50)
O=C1NCCCO[C@@H](C(F)(F)F)c2cc(ccn2)Nc2cc(n[nH]2)[C@H]2CC[C@H](C2)O1: E (E, <20)
C[C@H]1CCCNC(=O)O[C@@H]2CC[C@@H](C2)c2cc([nH]n2)Nc2cccc(c2)O1: D (D, >20 and ≤50)
C[C@@H]1CC[C@H](C)Oc2cncc(c2)Nc2cc(n[nH]2)[C@H]2CC[C@H](C2)OC(=O)N1: E (E, <20)
C[C@@H]1Oc2cncc(c2)Nc2cc(n[nH]2)[C@H]2CC[C@H](C2)OC(=O)N[C@H]2C[C@H]1C2: D (D, >20 and ≤50)
C[C@H]1Oc2cc(ccn2)Nc2cc(n[nH]2)[C@H]2CC[C@H](C2)OC(=O)N[C@H]2C[C@H]1C2: D (D, >20 and ≤50)

Sample C[C@H]1Oc2cncc(c2)Nc2cc(n[nH]2)[C@H]2CC[C@H](C2)OC(=O)N[C@H]2C[C@H]1C2 — what was its CDK2 Fold selectivity, CDK6?
D (D, >20 and ≤50)
